# Tested on: DU-145 prostate
# assayRemarks: NCI tumour cell line growth inhibition, 48 h

compound | systemName | GI50
C[C@H]1C(Oc2ccc(O)cc2)OC2OC3(C)CCC4[C@H](C)CCC1C24OO3 (some centres not stated) | DU-145 prostate | 20.1 µM
Nc1nnc(Cn2c(-c3ccccc3)nc3ccc(Br)cc3c2=O)s1 | DU-145 prostate | 85.4 µM
O=C(O)C1(Cc2cccc(Nc3nccs3)n2)CCC(Oc2cccc(Cl)c2F)CC1 (configuration not stated) | DU-145 prostate | 14.4 µM
O=[N+]([O-])c1ccc2ncccc2c1Cl | DU-145 prostate | 3.4 µM
COc1ccc(-c2c(-c3cc(OC)c4c(c3)OCO4)noc2N)cc1 | DU-145 prostate | 0.041 µM
CCCCCCCC(=O)SCC/C=C/[C@@H]1CC(=O)NCc2nc(co2)C2=N[C@@](C)(CS2)C(=O)N[C@@H](C(C)C)C(=O)O1 | DU-145 prostate | 0.0123 µM
CCCSC1=NC2C(N(CC)C(=O)N2CC)N1/N=C/C=C/c1ccccc1[N+](=O)[O-] (configuration not stated) | DU-145 prostate | 3.51 µM
O=C1CCc2c(sc3[nH]c(=S)n(Cc4ccccc4)c(=O)c23)C1 | DU-145 prostate | 5.06 µM
CCOC(=O)c1cc2c(n1Cc1ccccc1)-c1oncc1CC2 | DU-145 prostate | 11.4 µM
N#Cc1ccc(C(c2ccc(C#N)cc2)n2cncn2)cc1 | DU-145 prostate | > 5000 µM
Nc1c(C(=O)Nc2ccccc2F)sc2nc3c(cc12)C(=O)CCC3 | DU-145 prostate | 1.81 µM
COc1cc2nc3cc([N+](=O)[O-])ccc3c(NCCCNCC(C)(C)O)c2cc1OC | DU-145 prostate | 0.324 µM

----------
# System: SF-295 CNS
# assayRemarks: NCI tumour cell line growth inhibition, 48 h
Here, each record is paired with measured TGI data.

molecule | TGI
O=C(NNC(=O)c1cc(/C=C/c2cccc([N+](=O)[O-])c2)[nH]c(=S)n1)Nc1ccc(Cl)cc1 | > 100 µM
C=CCN(C)CN(C)c1nc(N(C)C)nc(N(C)C)n1 | > 100 µM
c1ccc(COCC2OC3c4ccccc4COC3C2OCc2ccccc2)cc1 (stereo not given) | > 100 µM
COc1cc2c(cc1OC)C(N)CC2=O (stereo not given) | > 100 µM
C#Cc1cccc(Nc2nc3ccc([N+](=O)[O-])cc3nc2Nc2cccc(C#C)c2)c1 | 0.416 µM

----------
# System: HL-60(TB) leukemia
# assayRemarks: NCI tumour cell line growth inhibition, 48 h

compound | GI50
CCCCCCCC(=O)SCC/C=C/[C@@H]1CC(=O)NCc2nc(co2)C2=N[C@@](C)(CS2)C(=O)N[C@@H](C(C)C)C(=O)O1 | 29.4 nM
Cc1cc(C)nc(SC2=C(Nc3cccc(Cl)c3C)C(=O)N(Cc3ccccc3)C2=O)n1 | > 160000 nM
Cc1nc(N)sc1C(=O)Nc1cc(C(=O)NCCCN(C)C)n(C)c1 | > 100000 nM
CCCCCCCCCCCCOC1C(CNC(=O)C2OC3OC(C)(C)OC3C2NC(=O)CN2CCCCCC2)OC2OC(C)(C)OC21 (configuration not stated) | 1870 nM
C#Cc1cccc(Nc2nc3ccc([N+](=O)[O-])cc3nc2Nc2cccc(C#C)c2)c1 | 299 nM
Cc1ccc(S(=O)(=O)Cc2nc(-c3ccc(C(=O)NCc4cccnc4)cc3)oc2C)cc1 | 1970 nM
COc1ccc2c(c1)[n+](=O)c(C(=O)/C=C/c1cc(OC)c(OC)c(OC)c1)c(C)n2[O-] | > 100000 nM
COC1=Nc2ccccc2S(=O)(=O)C=C1 | 1950 nM
C[C@H]1C(Oc2ccc(O)cc2)OC2OC3(C)CCC4[C@H](C)CCC1C24OO3 (some centres not stated) | 570 nM
O=[N+]([O-])c1ccc2ncccc2c1Cl | 1920 nM
C/C(=C\c1ccc(Cl)c(Cl)c1)[N+](=O)[O-] | 1940 nM
CN(C[C@@H]1COCCO1)S(=O)(=O)Nc1ccc2ccc3ncc(-c4cnn(C)c4)cc3c(=O)c2c1 | 6770 nM

----------
Here, each record is paired with measured GI50 data.
# Test system: SK-OV-3 ovarian
# assayRemarks: NCI tumour cell line growth inhibition, 48 h
measurementLabel: GI50

cpdSmiles | result
C/C(Cc1ccc(Cl)cc1)=C(/c1ccc(Cl)cc1)c1ccc(OCCN(C)C)cc1 | 5.42 µM
Cc1nc(N)sc1C(=O)Nc1cc(C(=O)NCCCN(C)C)n(C)c1 | > 100 µM
COc1cc2nc3cc([N+](=O)[O-])ccc3c(NCCCNCC(C)(C)O)c2cc1OC | 0.506 µM
O=C(CCCCCCSc1nc(-c2ccc(Cl)cc2)cc(-c2ccc(Cl)cc2)n1)NO | 1.32 µM
Nc1c(C(=O)Nc2ccccc2F)sc2nc3c(cc12)C(=O)CCC3 | 0.746 µM
N[C@@H]1CCCN(c2c(/C=C3\SC(=O)NC3=O)cccc2-c2ccccc2)C1 | 15.5 µM
C=C1C(=O)O[C@H]2[C@H]1CC/C(COC(=O)c1ccc(C#N)cc1)=C\CC[C@@]1(C)O[C@@H]21 | 15.8 µM
CC(=O)[O-].O=C([CH-]C(=O)c1ccccc1)c1ccccc1.O=C([CH-]C(=O)c1ccccc1)c1ccccc1.[Y+3] | 8.31 µM
Cc1nc2n(c(=O)c1CCN1CCC(c3noc4cc(F)ccc34)CC1)CCCC2 | > 50 µM
O=C(Oc1ccccc1Cl)c1ccccc1Nc1ccnc(C(F)(F)F)c1 | 8.02 µM

----------
# Test system: OVCAR-3 ovarian
# assayRemarks: NCI tumour cell line growth inhibition, 48 h

molecule | systemName | comparator | TGI, µM
CCCCn1sc(=O)n(Cc2ccc(CNC(=O)OCc3ccc4c(Br)cc(Br)c(O)c4n3)cc2)c1=O | OVCAR-3 ovarian | = | 0.8
COc1ccc([C@@]23OC[C@@H]4[C@@H](OC[C@@H]42)c2cc(OC)c(OC)cc23)cc1OC | OVCAR-3 ovarian | > | 100
O=C(NNC(=O)c1cc(/C=C/c2cccc([N+](=O)[O-])c2)[nH]c(=S)n1)Nc1ccc(Cl)cc1 | OVCAR-3 ovarian | > | 100
COc1ccc(Cn2cc3c(c2-c2cc(OC)c(OC)c(OC)c2)CCc2cnoc2-3)cc1[N+](=O)[O-] | OVCAR-3 ovarian | = | 3.09
CCCCCCCCCCCCN(O)C(=O)c1ccccc1 | OVCAR-3 ovarian | > | 100
CC(C)NCCC(O)c1cc2ccccc2o1 (stereo unspecified) | OVCAR-3 ovarian | > | 100
O=C(CCCCCCSc1nc(-c2ccc(Cl)cc2)cc(-c2ccc(Cl)cc2)n1)NO | OVCAR-3 ovarian | = | 4.91
CCc1nc(N)nc(N)c1-c1ccc(NCCc2ccccc2)c([N+](=O)[O-])c1 | OVCAR-3 ovarian | = | 32.2
COc1cccc(C2C3=C(COC3=O)Oc3cc4c(cc32)OCO4)c1 (stereo unspecified) | OVCAR-3 ovarian | = | 0.43
COc1cc2c(cc1OC)C(=O)C(C1=C(SC(=N)N)C(=O)c3cc(OC)c(OC)cc31)C2 (stereo unspecified) | OVCAR-3 ovarian | > | 100
CC(=O)[O][Hg][c]1ccccc1 | OVCAR-3 ovarian | = | 0.295
C[C@H]1C(Oc2ccc(O)cc2)OC2OC3(C)CCC4[C@H](C)CCC1C24OO3 (stereo partly specified) | OVCAR-3 ovarian | = | 32.8
CCOC(=O)/C=C1\c2ccccc2C(=O)N1CC(=O)OCC | OVCAR-3 ovarian | > | 100
COCCOCC(=O)N(CCn1ccc(NC(c2ccccc2)(c2ccccc2)c2ccccc2)nc1=O)CCn1cnc2nc(N)[nH]c(=O)c21 | OVCAR-3 ovarian | > | 100
O=C(Oc1ccccc1Cl)c1ccccc1Nc1ccnc(C(F)(F)F)c1 | OVCAR-3 ovarian | = | 0.533
O=C(NO)C(=O)Nc1ccc(Cl)cc1[N+](=O)[O-] | OVCAR-3 ovarian | > | 100
O=C(O)C1(Cc2cccc(Nc3nccs3)n2)CCC(Oc2cccc(Cl)c2F)CC1 (stereo unspecified) | OVCAR-3 ovarian | = | 36.4
COC1=Nc2ccccc2S(=O)(=O)C=C1 | OVCAR-3 ovarian | = | 6.79
CCC1CCc2nc3sc(C(=O)Nc4ccccc4C)c(N)c3cc2C1 (stereo unspecified) | OVCAR-3 ovarian | > | 100
C=CC(C)CCC(C/C=C(\C)CCC=C(C)C)C(=C)CCCC(C)C (stereo unspecified) | OVCAR-3 ovarian | > | 100
CC(=O)[O-].O=C([CH-]C(=O)c1ccccc1)c1ccccc1.O=C([CH-]C(=O)c1ccccc1)c1ccccc1.[Y+3] | OVCAR-3 ovarian | = | 15.8

----------
# System: HOP-92 NSCLC
# assayRemarks: NCI tumour cell line growth inhibition, 48 h
Here, each record is paired with measured TGI data.
measurementLabel: TGI

cpdSmiles | measurementLabel | result
C=CCN(C)CN(C)c1nc(N(C)C)nc(N(C)C)n1 | TGI | > 100 µM
Cc1nc(N)sc1C(=O)Nc1cc(C(=O)NCCCN(C)C)n(C)c1 | TGI | > 100 µM
Nc1nnc(Cn2c(-c3ccccc3)nc3ccc(Br)cc3c2=O)s1 | TGI | > 100 µM
CS(=O)(=O)CCNCc1ccc(-c2ccc3ncnc(Nc4ccc(OCc5ccccc5)c(Cl)c4)c3c2)o1 | TGI | 11.3 µM
COCCOCC(=O)N(CCn1ccc(NC(c2ccccc2)(c2ccccc2)c2ccccc2)nc1=O)CCn1cnc2nc(N)[nH]c(=O)c21 | TGI | > 100 µM

Cited source: PubChem BioAssay (NCI)
